Molecular target: human ether-à-go-go-related gene (hERG) potassium channel (human, UniProt Q12809);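 further: peak tail current of the secondary pulse compared with the same well before compound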
Sequence (Q12809 whole entry, looked up): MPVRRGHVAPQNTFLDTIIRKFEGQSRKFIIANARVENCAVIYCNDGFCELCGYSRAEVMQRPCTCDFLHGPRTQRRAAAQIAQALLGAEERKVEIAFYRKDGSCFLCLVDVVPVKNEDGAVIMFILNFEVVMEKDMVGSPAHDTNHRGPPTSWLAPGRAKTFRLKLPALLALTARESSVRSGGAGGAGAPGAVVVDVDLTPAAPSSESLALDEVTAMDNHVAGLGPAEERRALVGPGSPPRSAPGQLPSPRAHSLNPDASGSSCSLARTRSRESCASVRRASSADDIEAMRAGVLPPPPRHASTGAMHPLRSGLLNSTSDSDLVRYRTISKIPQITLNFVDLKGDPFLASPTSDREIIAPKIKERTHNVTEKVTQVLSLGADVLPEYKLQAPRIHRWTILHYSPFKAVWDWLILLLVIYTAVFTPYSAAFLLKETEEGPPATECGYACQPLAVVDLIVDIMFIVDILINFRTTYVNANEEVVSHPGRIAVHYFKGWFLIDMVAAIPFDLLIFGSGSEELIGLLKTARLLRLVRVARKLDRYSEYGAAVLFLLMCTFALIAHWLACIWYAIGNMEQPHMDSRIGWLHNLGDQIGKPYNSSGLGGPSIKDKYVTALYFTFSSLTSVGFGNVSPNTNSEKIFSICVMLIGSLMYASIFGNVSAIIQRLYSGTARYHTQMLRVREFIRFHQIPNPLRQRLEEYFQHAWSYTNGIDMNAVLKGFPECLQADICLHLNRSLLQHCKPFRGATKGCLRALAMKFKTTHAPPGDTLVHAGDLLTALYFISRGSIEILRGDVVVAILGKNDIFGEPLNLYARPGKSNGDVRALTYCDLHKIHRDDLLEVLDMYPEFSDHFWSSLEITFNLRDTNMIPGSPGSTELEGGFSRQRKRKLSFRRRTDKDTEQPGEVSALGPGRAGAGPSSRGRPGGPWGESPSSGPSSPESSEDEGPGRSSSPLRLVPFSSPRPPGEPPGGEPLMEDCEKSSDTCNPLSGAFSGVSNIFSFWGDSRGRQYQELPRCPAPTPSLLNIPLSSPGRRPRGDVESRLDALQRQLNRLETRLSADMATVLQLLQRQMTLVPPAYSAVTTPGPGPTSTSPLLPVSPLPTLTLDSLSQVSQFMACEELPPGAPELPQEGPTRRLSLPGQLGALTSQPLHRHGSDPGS
Assay: primary screen, population patch clamp on CHO cells stably expressing hERG; higher = less effect of the substance
Screen size: about 310,000 compounds; about 14,000 (4.5%) showed an effect of 50% or more. Effects have a minus sign here. Many of the other results were omitted from the sample, so strong results are more common in it than they were.
measurement name: hERG current change (%, negative = inhibition) at 10uM (%)
Numbers only, in %.

Worked cases, hERG current change (%, negative = inhibition) at 10uM given:
Cn1c(=O)n(CCOc2ccc(Cl)cc2Cl)c2ccccc21; -2.26
COc1cc(NC(=O)C(c2ccccc2)c2ccccc2)c(C(=O)O)cc1OC; 16.7
O=C(Nc1cccc(-c2nnn(CC(=O)N3CCc4ccccc4C3)n2)c1)C1CCC1; 2.59
COc1ccc(CCNC(=O)Cc2cccc(C(F)(F)F)c2)cc1OC; 5.75
OCCNc1nc(OCC(F)(F)F)nc(N2CCN(C34CC5CC(CC(C5)C3)C4)CC2)n1; -37.9
COc1cccc(CN(C)C(=O)c2ccc(OCC(=O)Nc3cccc(C(F)(F)F)c3)c(OC)c2)c1; -26.2
COc1cc(C(=O)N(C)CC2CCN(CCc3cccc(C(F)(F)F)c3)CC2)ccc1C; -78.8
CN(Cc1ccccc1O)CC1CCCN(CCc2ccc(Cl)cc2)C1 (stereo not shown); -76.1
COc1ccccc1CCN1CCCC(CN(C)Cc2ccc(OCCO)cc2)C1 (stereo not shown); -40.8
COc1ccc(CNC(=O)C2CCN(S(=O)(=O)c3cccc4nonc34)CC2)cc1; -0.634

Dear colleague, could you please provide hERG current change (%, negative = inhibition) at 10uM for the compounds listed below?
1. COC(=O)c1cc(S(=O)(=O)NCc2ccccc2Cl)c[nH]1
2. Cc1onc(-c2ccccc2)c1C(=O)Nc1sc2c(c1C(N)=O)CCC2
3. COCCN1CCC(CNCc2cn[nH]c2-c2ccc(C)c(C)c2)C1 (stereo not shown)
4. CCn1cc(CNCc2cn[nH]c2-c2cc3ccccc3o2)cn1
5. Cc1nn(CC(=O)NCc2ccc(C(=O)O)cc2)c(C)c1[N+](=O)[O-]
6. CCSc1nc2cc(OC)c(OC)cc2c(=O)n1CC

Reply |
1. 17.1
2. 6.44
3. -3.39
4. -14.1
5. 21.5
6. -2.16

Dear colleague, could you please provide hERG current change (%, negative = inhibition) at 10uM for the compounds listed below?
1. CCN(Cc1ccccc1OC)CC1CCCN(CCc2cccc(OC)c2)C1 (stereo not shown)
2. Cn1cc(CCNCc2cn[nH]c2-c2ccc(-c3ccccc3)cc2)cn1
3. O=C(c1cccc(C(F)(F)F)c1)N1CCN(CCc2ccccc2)CC1
4. COC(=O)c1c(C)[nH]c(C)c1-c1ccccc1
5. O=C(CSc1nnc(-c2ccncc2)o1)Nc1ccccc1C(F)(F)F
6. CN(CCC1CCOCC1)Cc1cn[nH]c1-c1ccc(-c2ccccc2)cc1
7. Cc1ccc(-c2csnn2)cc1
8. Cl.N=c1n(CCO)c2ccccc2n1Cc1ccc(Cl)cc1

Reply |
[-43.6, -64.8, -47.8, -5.37, -0.412, -62.6, 6.13, -40.1]

Dear colleague, could you please provide hERG current change (%, negative = inhibition) at 10uM for the compounds listed below?
1. CN(Cc1ccccc1OCCO)CC1CCCN(CCc2ccc(Cl)cc2)C1 (stereo not shown)
2. CCOc1cccc(CN(C)CC2CCCN(CCc3ccc(Cl)cc3)C2)c1O (stereo not shown)
3. COc1ccc(-c2[nH]ncc2CNCCc2ncccc2C)cc1F
4. CNc1nc(NCCOC23CC4CC(CC(C4)C2)C3)nc(OCC(F)(F)F)n1
5. CN(CCc1cnn(C)c1)Cc1cn(C)nc1-c1ccc2c(c1)OCCO2

Reply |
1: -66.9; 2: -69.7; 3: -41.7; 4: 8.55; 5: 5.94

Dear colleague, could you please provide hERG current change (%, negative = inhibition) at 10uM for the compounds listed below?
1. Cc1nc(N)c(C#N)c(-c2ccccc2)c1C
2. COc1cccc(CCNCc2cccc(C(F)(F)F)c2)c1.O=C(O)C(=O)O
3. O=C(Nc1ccccc1-c1nnn(CC(=O)N2CCc3ccccc3C2)n1)C1CCC1
4. O=C(COc1ccc(Cl)cc1)NCC(=O)N/N=C/c1cccs1
5. COc1ccc(OCc2nc3c4cc(OC)c(OC)cc4nc(=S)n3[nH]2)cc1

Reply |
1. -10.4
2. -3.46
3. -52.8
4. 12
5. 11.7
